study system: CYP2D6 (Homo sapiens)
Construct: purchased Cerep (contract assay, ADMET Study 13170)
Sequence (P10635 whole entry): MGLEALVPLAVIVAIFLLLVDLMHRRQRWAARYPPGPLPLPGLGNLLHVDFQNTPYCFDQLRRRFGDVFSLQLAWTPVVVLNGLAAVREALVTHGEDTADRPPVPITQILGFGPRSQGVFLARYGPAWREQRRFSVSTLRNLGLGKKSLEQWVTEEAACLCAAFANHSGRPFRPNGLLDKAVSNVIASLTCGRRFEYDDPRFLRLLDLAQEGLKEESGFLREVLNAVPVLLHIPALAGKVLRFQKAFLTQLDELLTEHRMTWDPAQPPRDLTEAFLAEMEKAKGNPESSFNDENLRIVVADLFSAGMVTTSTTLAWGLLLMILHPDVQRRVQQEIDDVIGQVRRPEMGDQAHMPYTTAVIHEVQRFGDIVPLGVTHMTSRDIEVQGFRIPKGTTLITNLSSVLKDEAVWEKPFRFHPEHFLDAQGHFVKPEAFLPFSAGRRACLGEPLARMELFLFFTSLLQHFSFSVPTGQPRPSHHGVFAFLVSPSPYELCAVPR
protocol summary: CYP2D6 Inhibition (recombinant, MFC substrate)
Format: in vitro ADME
particulars: human, recombinant CYP2D6, probe MFC; 5.0E−06 M; read-out: CYP2D6 % Inhibition of Control Values
readout kind: inhibition at 5 µM (%)
Express it in %; write the number only.

Exam item: I would be grateful if you could share the reported inhibition at 5 µM for `Cc1ccc(F)cc1C[C@H](C)Nc1cc[nH]c(=O)c1-c1nc2cc3c(cc2[nH]1)C(=O)N(CCN1CCCC1)C3` .
Marked response: 16

----------
Tested on: U937
protocol summary: Cellular IC50, U937
Assay type: cell-based
particulars: Homo sapiens, U-937; Table 3A
readout kind: IC50

Exam item: // fetch U937 IC50 for Cc1ccc(F)cc1C[C@H](C)Nc1cc[nH]c(=O)c1-c1nc2cc3c(cc2[nH]1)C(=O)N(CCN1CCCC1)C3 [drawing 360]
Marked response: > 3000 nM

Exam item: Identify the measured IC50 of `C[C@@H](Cc1c(F)c(F)cc(F)c1F)Nc1cc[nH]c(=O)c1-c1nc2cc3c(cc2[nH]1)CN(CCN(C)C)C3=O` for U937.
Marked response: > 3000 nM

Exam item: Lab note: need IC50 with U937 for entry Cc1ccc(F)cc1C[C@H](C)Nc1cc[nH]c(=O)c1-c1nc2cc3c(cc2[nH]1)CN(CCN(C)C)C3=O [drawing 361] , please look it up.
Marked response: > 3000 nM

Exam item: Fill in the recorded IC50 for this compound, with U937 as test system: `C[C@@H](Cc1c(F)c(F)cc(F)c1F)Nc1cc[nH]c(=O)c1-c1nc2cc3c(cc2[nH]1)C(=O)N(C1CCN(C)CC1)C3`
Marked response: 1180 nM

----------
protocol summary: Pharmacokinetics study in CD-1 mice (IV, PO)
Type: in vivo
particulars: CD-1, mouse, plasma, iv, 1 mg/kg, IV 1 mg/kg, individual animals A-D; read-out: Cmax
readout kind: Cmax (ng/mL)
Answer format: numeric, ng/mL implied, no suffix.

Exam item: Recorded Cmax of `Cc1ccc(F)cc1C[C@H](C)Nc1cc[nH]c(=O)c1-c1nc2cc3c(cc2[nH]1)C(=O)N(CCN1CCCC1)C3` , please.
Marked response: 248

----------
study system: CYP2C9 (Homo sapiens, UniProt P11712)
Construct: purchased Cerep (contract assay, ADMET Study 13170)
Sequence (P11712 whole entry): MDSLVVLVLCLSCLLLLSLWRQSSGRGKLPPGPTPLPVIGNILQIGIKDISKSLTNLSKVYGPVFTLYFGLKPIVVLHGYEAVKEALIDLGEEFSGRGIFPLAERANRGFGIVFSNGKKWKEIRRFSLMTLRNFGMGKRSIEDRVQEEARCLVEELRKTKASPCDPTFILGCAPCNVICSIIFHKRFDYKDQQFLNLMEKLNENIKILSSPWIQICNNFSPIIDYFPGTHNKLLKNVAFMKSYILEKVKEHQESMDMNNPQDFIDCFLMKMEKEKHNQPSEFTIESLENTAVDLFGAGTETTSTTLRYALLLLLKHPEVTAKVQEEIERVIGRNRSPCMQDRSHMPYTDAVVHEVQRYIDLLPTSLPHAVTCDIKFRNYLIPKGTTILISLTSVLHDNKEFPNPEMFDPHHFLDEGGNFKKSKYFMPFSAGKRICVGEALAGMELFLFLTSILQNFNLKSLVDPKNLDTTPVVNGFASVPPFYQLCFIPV
protocol summary: CYP2C9 Inhibition (recombinant, MFC substrate)
Assay type: in vitro ADME
particulars: human, recombinant CYP2C9, probe MFC; 5.0E−06 M; read-out: CYP2C9 % Inhibition of Control Values
readout kind: inhibition at 5 µM
I'd appreciate it if you included the unit after the number.

Exam item: State the recorded inhibition at 5 µM for this entry: `Cc1ccc(F)cc1C[C@H](C)Nc1cc[nH]c(=O)c1-c1nc2cc3c(cc2[nH]1)C(=O)N(CCN1CCCC1)C3`
Marked response: 41%

----------
protocol summary: Caco-2 (TC7) A-B Permeability test (pH 6.5/7.4)
particulars: human, Caco-2, pH 6.5, Permeability 2nd, A-B Permeability (TC7, pH 6.5/7.4), test concentration 1.0E−05 M, 2nd replicate
readout kind: Papp A→B at 10 µM (×10⁻⁶ cm/s)
Dear colleague, please return just the value in ×10⁻⁶ cm/s, with no unit written.

Exam item: Look up Papp A→B at 10 µM: Cc1ccc(F)cc1C[C@H](C)Nc1cc[nH]c(=O)c1-c1nc2cc3c(cc2[nH]1)C(=O)N(CCN1CCCC1)C3 [compound (II)]
Marked response: 0.44

Exam item: // lookup Papp A→B at 10 µM for CNC(=C[N+](=O)[O-])NCCSCc1ccc(CN(C)C)o1 [Ranitidine]
Marked response: 0.64

Exam item: Papp A→B at 10 µM lookup needed for CC(CCc1ccccc1)NCC(O)c1ccc(O)c(C(N)=O)c1 (stereo not shown) [Labetalol] , thanks.
Marked response: 6.21

Exam item: Returns the measured Papp A→B at 10 µM for the input molecule. Input: COc1cc2c(c(OC)c1OC)-c1ccc(OC)c(=O)cc1[C@@H](NC(C)=O)CC2 [Colchicine]
Marked response: 0.05
